The values you see were collected from patent US20070218460A1.

Reported expression variation rate depp values for a set of compounds
# Test system: depp
# Assay text: Real-time quantitative PCR of PLsis marker gene expression
# Type: cell-based, human
# Study conditions: HepG2 cells, 24 hr exposure, relative value, control group = 1.0, GAPDH internal standard, n=3
API note: the answer field is a bare number with no unit suffix.

Compound	expression variation rate depp
O=C(NCC1CCCCN1)c1cc(OCC(F)(F)F)ccc1OCC(F)(F)F (stereo not shown) [flecainide]	1.73
CC(=O)N1CCN(c2ccc(OCC3COC(Cn4ccnc4)(c4ccc(Cl)cc4Cl)O3)cc2)CC1 (stereo not shown) [ketoconazole]	2.29
CC(=O)Nc1ccc(O)cc1 [acetaminophen]	0.94
CN(C)C/C=C(/c1ccc(Br)cc1)c1cccnc1 [zimelidine]	2.67
C1CCC(C(CC2CCCCN2)C2CCCCC2)CC1 (stereo not shown) [perhexiline]	2.55
CC[C@H]1OC(=O)[C@H](C)[C@@H](O[C@H]2C[C@@](C)(OC)[C@@H](O)[C@H](C)O2)[C@H](C)[C@@H](O[C@@H]2O[C@H](C)C[C@H](N(C)C)[C@H]2O)[C@](C)(O)C[C@@H](C)C(=O)[C@H](C)[C@@H](O)[C@]1(C)O [erythromycin]	0.71
CN1CCN(C(c2ccccc2)c2ccc(Cl)cc2)CC1 (stereo not shown) [chlorcyclizine]	3.24
C[C@H]1COc2c(N3CCN(C)CC3)c(F)cc3c(=O)c(C(=O)O)cn1c23 [levofloxacin]	0.83

Req: Can you look up the measured expression variation rate depp of CC[C@H]1OC(=O)[C@H](C)[C@@H](O[C@H]2C[C@@](C)(OC)[C@@H](O)[C@H](C)O2)[C@H](C)[C@@H](O[C@@H]2O[C@H](C)C[C@H](N(C)C)[C@H]2O)[C@](C)(OC)C[C@@H](C)C(=O)[C@H](C)[C@@H](O)[C@]1(C)O [clarithromycin] for me?
Resp: 0.93

Req: Which value of expression variation rate depp has been reported for CCN(CC)CCNC(=O)c1ccc(N)cc1 [procainamide] in the records?
Resp: 0.98

###

Here, each record is paired with measured expression variation rate mgc4171 data.
# Test system: mgc4171
# Assay text: Real-time quantitative PCR of PLsis marker gene expression
# Assay type: cell-based, human
# Study conditions: HepG2 cells, 24 hr exposure, relative value, control group = 1.0, GAPDH internal standard, n=3
# Protocol: Using RNeasy Mini Kit (QIAGEN), total RNA was purified from the cells, and cDNA was synthesized in a 100 μL system using TaqMan Reverse Transcription Reagents (PE Applied Biosystems). As the primer for glyceraldehyde-3-phosphoric acid dehydrogenase (GAPDH) and VIC labeled probe, those attached to TaqMan GAPDH Control Reagents (PE Applied Biosystems) were used. […] For each test compound, the expression variation rate of 12 genes each relative to the control group was determined.
Reply with the value as a number alone.

Sample records with expression variation rate mgc4171:
Molecule	System tested	Property label	Val
CC/C(=C(\c1ccccc1)c1ccc(OCCN(C)C)cc1)c1ccccc1	mgc4171	expression variation rate mgc4171	1.60
CN(C)CCCN1c2ccccc2CCc2ccc(Cl)cc21	mgc4171	expression variation rate mgc4171	1.41

Req: Could you share which expression variation rate mgc4171 value was measured for CCCCc1oc2ccccc2c1C(=O)c1cc(I)c(OCCN(CC)CC)c(I)c1 ?
Resp: 1.32

Req: If you can, please state the reported expression variation rate mgc4171 value of CC[C@H]1OC(=O)[C@H](C)[C@@H](O[C@H]2C[C@@](C)(OC)[C@@H](O)[C@H](C)O2)[C@H](C)[C@@H](O[C@@H]2O[C@H](C)C[C@H](N(C)C)[C@H]2O)[C@](C)(OC)C[C@@H](C)C(=O)[C@H](C)[C@@H](O)[C@]1(C)O .
Resp: 1.18

Req: Endpoint output: expression variation rate mgc4171 of Clc1ccccc1CNCC1CCC(CNCc2ccccc2Cl)CC1 (centres unmarked) . Value?
Resp: 1.63
